System: Mtb H37Rv strain
Experiment Description: Checkerboard assay with rifampicin, ethambutol, delamanid and amoxicillin (384-well, MTT or ATP)
Assay type: cell-based, Mycobacterium tuberculosis
Run Conditions: Mycobacterium tuberculosis, H37RV, Comp B alone (IC90)

| Molecule | Target Of Assay | Unit Abbrev | MIC |
| --- | --- | --- | --- |
| C[C@]1(COc2ccc(N3CCC(Oc4ccc(OC(F)(F)F)cc4)CC3)cc2)Cn2cc([N+](=O)[O-])nc2O1 [DLD, Delamanid] | Mtb H37Rv strain | µM | 0.01 |
| CO[C@H]1/C=C/O[C@@]2(C)Oc3c(C)c(O)c4c(O)c(c(/C=N/N5CCN(C)CC5)c(O)c4c3C2=O)NC(=O)/C(C)=C\C=C\[C@H](C)[C@H](O)[C@@H](C)[C@@H](O)[C@@H](C)[C@H](OC(C)=O)[C@@H]1C [RIF, Rifampicin] | Mtb H37Rv strain | µM | 0.04 |
| CC1(C)S[C@@H]2[C@H](NC(=O)[C@H](N)c3ccc(O)cc3)C(=O)N2[C@H]1C(=O)O [amoxicillin] | Mtb H37Rv strain | µM | 128 |
| CC[C@@H](CO)NCCN[C@@H](CC)CO [EMB, Ethambutol] | Mtb H37Rv strain | µM | 8 |
